Assay: yeast display, Sf9 membrane polyspecificity reagent, FACS + sequencing; frameworks hold sequencing errors
PARAMETER: polyreactivity (PSR sort gate)

Here is how some sequences turned out for polyreactivity (PSR sort gate).
{"columns": ["SEQUENCE ENTRY", "polyreactivity (PSR sort gate)"],
 "data": [
  ["QVQLVESGGGLVQAGGSLRLSCAASGRIFDWNAMGWYRQAPGKERELVAAISYSDGSTYYADSVKGRFTISRDNAKNTVYLQMNSLKREDTAVYYCDADFYDRTYITWYEYWGQGTQVTVSS", "high polyreactivity"],
  ["QVQLVESGAGLVQAGGSLRLSCAASGSTLYRYAMGWYRQAPGKERELVAAISRRGDSTYYADSVKGRFTISRDNAKNTVYLQMNSLKPEDTAVYYCNTARSAGKYDYWGQGTQVTVSS", "high polyreactivity"],
  ["QVQLVETGGGLVQAGGSLRLSCAASGSTFYDNAMGWYRQAPGKERELVAAITRSGTRTYYADSVKGRFTISRDNAKNTVYLQMNSLKPEDTAVYYCNVVLYSYVTYRIITHGTYGYWGQGTQVTVSS", "high polyreactivity"],
  ["QVQLVDSGGRLVQAGGSLRLSSPASGLIISAYAMGWYRQAPGKEMEFVAAISRSGGITYYADSVKGRFTISRDNAKNTVYLQMNSLKPEDTAVYYCNARLYDPTLKFGYWGQGTQVTVSS", "high polyreactivity"],
  ["QVQLVESGGGIVQAGGSLRLSCAASGSTFPPNAMGWYRQAPGKERELVAGINGSGGRTYYADSVKGRFTISRDNAKNTVYLQMNSLKPVDTAVYYCATRLRSEYYYNKWYYHWGQGTQVTVSS", "high polyreactivity"],
  ["QVQLVETGGGLVQAGGSLRLSCAASGFIFVKYAMGWYRQAPGKERELVAAITTSGTGTFYADSVKGRFTISRDNAKNTVYLQMNSLKPVDTAVYYCNALGHPGDDWGQVTQVTVSS", "low polyreactivity"],
  ["QVQLVESGGGLVQAGGSLRLSCAASGSTFYHYAMGWYRQAPGKERELVAAISWSGGSTYYADSVKGSFTISRDNAKNTVYLLMYSLKPEDTAVYYCNALLSGLTSTEYDYWGQGTQVTVSS", "high polyreactivity"],
  ["QVQLVESGGGLVQAGGSLRLSCAASGRIFRGNAMGWYRQAPGKERELVAAISWGGGSTYYAYSVKGRFTISRDNAKNTVYLQMNSLKPEDTAVYYWNKEYVFWRFPNWYTYGYWGQGTQVTLSS", "high polyreactivity"],
  ["QVQIVESGGGLVQAGGSLRLSCAASGFTFVYYAMGWYRQAPGKERELVAAISKRGGSTYYADSVKGRFTISRDNAKNTVYLQMNSLKPEDTAVYYCNAGYGRWQRHDYWGQGTLVTVSS", "high polyreactivity"],
  ["QVQHVESGGGLVQAGGSLGLSCAASGRIFGVYAMGWYTQAPGKERELVAAIWSGGSTYYADSVKGRFTISRDNAKNTVYLQMNSLKPEDTAVYYCAADDAYSHRSLYSHNDYWGQGNQVTVSS", "low polyreactivity"]
]}

Count: 5. Required value per item: polyreactivity (PSR sort gate).
1. QVQLQESGGGLVQAGGSLRLSCAASGNFFDADIMGWYRQAPGKERELVASITDGGSTNYADSVKGRFTISRGNTKNTVYLLMNCLKPEDTSVYYCAAIAYPDMPTYFDYNSDYFYWGQGTQVTVSS
2. QVQLVESGGGLVQAGGSLRISCAASGSIFPFYAMGWYRQAPGKERELVAAISDRGGSTYYADSVKGRFTISRDNAKNTVYLQMNSLKPEDTAVYYCAKGGEVSQGYTDEYDYWGQGTQVTVSS
3. QVQLEESGGGLVQAGGSLRLSCAASGRTFGVYAMGWYRQAPGKERELVAGIRWRGGSTYYADSVKGRFTISRDNAKNTVYLQMNSLKPEDTAVYYCAADVYLVKYDYWGQGTQVTVSS
4. QVQLVESGGGLVQAGGSLRLRCAASGRTFYRYAMGWYRQAPGKERELVASINRGGSTNYADSVKGRFTISRDNAKNTVYLQMNSLKPEDTAVYYCACYCYCYWGQGTQVTVSS
5. QVQLVESGVGLVQAGGTLRLSCAASGFTFVRYAMAWYRQAPGKEREFVASISARGCNTFYADSVKGRFTISRDNAKNTVYLQMNSLKPEDTAVYYCAKRGPYGTGYGYWGQGTQVTVSS

1: high polyreactivity; 2: low polyreactivity; 3: low polyreactivity; 4: low polyreactivity; 5: high polyreactivity
